Attribute: switch fluorescence ratio
Tested on: ATP;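 also: ATP exposure 15 min at 22 °C before imaging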
METHOD SUMMARY: switch fluorescence ratio, 500 uM ATP over buffer (Cy3 cluster intensity, sum of 5 cycles each) (fold (ratio)); higher = stronger signal-on switching upon ATP binding; sequences stand for … in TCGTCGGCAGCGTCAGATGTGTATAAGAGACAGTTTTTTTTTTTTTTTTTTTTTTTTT…TC
TEST PARAMETERS: aptamer strand: ATP DNA aptamer (quencher-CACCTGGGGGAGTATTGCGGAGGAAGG + anchor), 100 nM annealed; ATP concentration: 500 uM
RESULT TYPE: switch fluorescence ratio

> print(dat)
    sequence.string  result.value
 1       CACGGGAACA          1.08
 2       TCGATCATAA          0.99
 3       TGGCTTTTGT          1.44
 4       GATCAGGTCT         0.987
 5       TGTAGGGGCT         0.982
 6       ACTAAAAGGT          1.01
 7       CTGGTCACAG             1
 8       GGTCCTAGAA         0.972
 9       TGTTTTCGTG         0.985
10       CGTTTACAAG         0.985
11       ACTTTGAATA         0.988
12       CGGTGGGGGG          1.04
13       GGGGCGCGGG          1.03
14       GGGGATGCGC          1.02
15       TTGTTAGTTA          1.01
16       GTTGACGCTA          1.07
17       AAAGGGATAT         0.975
18       TATTTGTGTC         0.982
19       AATACCATCG          1.05
20       CTCGTGTGTG          1.04
21       TGTGGGGGCT             1
22       GGTGACGTGG          1.02
23       TCCGGTACTG          1.16
24       TGAGCGTTGG         0.999
25       TGCAATGATG          1.04
26       GCCATACGCG          1.03
27       TAGGGGTGGT         0.984
28       TTTTTTCAAC          1.15
29       ATTAGTCGGT         0.971
30       GATTTTAGAG         0.981
31       AACGGTGGTC          1.03
32       TTTGACGGTG          1.01
33       ATCATTAACT          1.02
34       ACATCGTGTT         0.977
35       TCTAACCTGG          1.01
36       TCGAGCTAAT          1.41
37       ATTGGAGGGT         0.979
38       TGAGGGTTGC          1.01
39       CTAAACCGGT         0.989
40       GGATTTATGT         0.945
41       AGTGCGTGCG         0.979
42       TCAACTATGG         0.989
43       CATGATACGG          1.03
44       TTTCATGGGG          1.01
45       ATCTTTGGTA         0.983
46       CCCTGAATTG         0.984
47       ATAGTAGTCA          1.01
48       AATGGGTGAG         0.982
49       TTTCGTGAAA         0.998
50       ATTAAATGAT         0.957
51       TTGAATTTTC          1.02
52       ATTATAGTAA         0.989
53       ATGATTGATG          1.02
